Test system: neuronal uptake of 5-hydroxytryptamine
protocol: Inhibition of the uptake of ^14 C-5-HT in vivo (i.p. administration, hypothalamus slices)
Parameters: species or system mouse
stated conditions: Mus musculus, ip, 0.5 h; i.p., half an hour before the animals were killed; 50 percent decrease of active uptake; read-out: Uptake of ^14 C-5-HT in vivo ED50
Counter-ions that a name gives are not always drawn.
observation type: ED50 (µmol/kg)
Give bare numbers, in µmol/kg.

Worked set:
| compound | unit name | ED50 |
| --- | --- | --- |
| CNC/C=C(/c1ccc(Cl)cc1)c1cccnc1.O=C(O)C(=O)O [Example 3, oxalate] | µmol/kg | 19 |
| CN(C)C/C=C(/c1ccc(Cl)cc1)c1cccnc1 [Example 2, oxalate] | µmol/kg | 34 |

Now look at this entry.
Task: Which value of ED50 has been reported for CNCC=C(c1cccnc1)c1ccc(Cl)cc1Cl in the records?
Output: 60

---

Test system: neuronal uptake of 5-hydroxytryptamine
protocol: Inhibition of the uptake of ^14 C-5-HT in vivo (i.p. administration, hypothalamus slices)
Set-up: species or system mouse
stated conditions: Mus musculus, ip, 0.5 h; i.p., half an hour before the animals were killed; 50 percent decrease of active uptake; read-out: Uptake of ^14 C-5-HT in vivo ED50
Method: The test substances were administered intraperitoneally half an hour before the animals were killed. […] The incubation time was 5 minutes with 5 minutes of preincubation before the labelled amines were added. The slices were dissolved in Soluene® and the amounts of radioactive amines taken up were determined by liquid scintillation. […] Active uptake is defined as that part of the radioactive uptake which is inhibited by a high concentration of cocaine.
Structures can show the parent of a compound that is named as a salt.
observation type: ED50 (µmol/kg)
Answers are plain numbers, in µmol/kg.

| molecule | target under test | ED50 (µmol/kg) |
| --- | --- | --- |
| CNCC=C(c1ccc(F)cc1)c1cccnc1 [Example 5, oxalate] | neuronal uptake of 5-hydroxytryptamine | 72 |
| CN(C)C/C=C(/c1ccc(Br)cc1)c1cccnc1 [4-Br CH3 Z, reference compound] | neuronal uptake of 5-hydroxytryptamine | 49 |

Your task in this section: give ED50 for each listed record.
1. CNC/C=C(/c1ccc(Br)cc1)c1cccnc1 [4-Br H Z, reference compound]
2. CN(C)C/C=C(/c1ccc(I)cc1)c1cccnc1.O=C(O)C(=O)O [Example 11, oxalate]

Output:
1: 15; 2: 46

---

Field: ED50. Provide a value for each of the compounds that follow.
Test system: neuronal uptake of 5-hydroxytryptamine
protocol: Inhibition of the uptake of ^14 C-5-HT in vivo (i.p. administration, hypothalamus slices)
Design: species or system mouse
stated conditions: Mus musculus, ip, 0.5 h; i.p., half an hour before the animals were killed; 50 percent decrease of active uptake; read-out: Uptake of ^14 C-5-HT in vivo ED50
Procedure: The test substances were administered intraperitoneally half an hour before the animals were killed. […] The incubation time was 5 minutes with 5 minutes of preincubation before the labelled amines were added. The slices were dissolved in Soluene® and the amounts of radioactive amines taken up were determined by liquid scintillation. […] Active uptake is defined as that part of the radioactive uptake which is inhibited by a high concentration of cocaine.
Counter-ions that a name gives are not always drawn.
Answers are plain numbers, in µmol/kg.

Below: 2 compounds and their reported ED50.
| compound | unit name | ED50 |
| --- | --- | --- |
| CNC/C=C(\c1ccc(Br)cc1)c1cccnc1 [4-Br H E, reference compound] | µmol/kg | 102 |
| CN(C)CC=C(c1cccnc1)c1ccc(Cl)cc1Cl | µmol/kg | 42 |

Give one value of ED50 per listed compound.
1. CNC/C=C(\c1cccnc1)c1ccc(Cl)cc1Cl [Example 10, oxalate]
2. CN(C)C/C=C(\c1cccnc1)c1ccc(Cl)cc1Cl [Example 9, oxalate]

Output:
18
43

For every item below, please supply its ED50.
1. CN(C)CC=C(c1ccc(F)cc1)c1cccnc1 [Example 4, oxalate]
2. CNC/C=C(\c1cccnc1)c1ccccc1Br [Example 7, oxalate]

Output:
[115, 102]

---

Tested on: neuronal uptake of noradrenaline
protocol: Inhibition of the uptake of ^3 H-NA in vivo (i.p. administration, hypothalamus slices)
Parameters: species or system mouse
stated conditions: in vivo, i.p., at the highest dose examined (the > value, μmole/kg)
observation type: Percentage inhibition of ^3 H-NA uptake at the highest dose examined (%)
One number for each entry, in %.

Worked set:
| compound | measured |
| --- | --- |
| CN(C)C/C=C(\c1cccnc1)c1cccc(Cl)c1.O=C(O)C(=O)O | 41 |
| CN(C)C/C=C(/c1ccc(Br)cc1)c1cccnc1 [4-Br CH3 Z, reference compound] | 26 |
| CNC/C=C(/c1ccc(Br)cc1)c1cccnc1 [4-Br H Z, reference compound] | 38 |

Task: Recorded Percentage inhibition of ^3 H-NA uptake at the highest dose examined of CN(C)C/C=C(/c1ccc(I)cc1)c1cccnc1.O=C(O)C(=O)O , please.
Output: 0

---

Tested on: neuronal uptake of 5-hydroxytryptamine
protocol: Inhibition of the uptake of ^14 C-5-HT in vivo (i.p. administration, hypothalamus slices)
Design: species or system mouse
stated conditions: Mus musculus, ip, 0.5 h; i.p., half an hour before the animals were killed; 50 percent decrease of active uptake; read-out: Uptake of ^14 C-5-HT in vivo ED50
Counter-ions that a name gives are not always drawn.
observation type: ED50

A selection of reference data follows.
| molecule | measured |
| --- | --- |
| CN(C)C/C=C(\c1cccnc1)c1ccccc1Br [Example 6, oxalate] | > 98 µmol/kg |
| CN(C)C/C=C(\c1cccnc1)c1cccc(Br)c1 [Example 12, oxalate] | > 98 µmol/kg |

Please examine the following record next.
Task: If you can, please state the reported ED50 value of CN(C)C/C=C(\c1cccnc1)c1cccc(Cl)c1.O=C(O)C(=O)O [Example 1, oxalate] .
Output: > 110 µmol/kg

Recorded values, source patent US4418065A.
